The values you see were collected from paper PMC9913752.

Assay: 8-day repeat-dose study, tolerability (blood chemistry, hematology, adverse events) in tumor-bearing dogs
Assay type: in vivo, dog
Settings: Dog 3; Post: 30 min after last injection on day 8; 10 mg s.c. once daily for 8 days
Method: Previous studies utilizing repeat dosing in mice and rats established safe starting doses for studies using dogs. […] Blood levels of AFPep were measured before and 30 minutes following its administration on the first day and eighth day of treatment with AFPep. […] Tolerability was assessed using the Veterinary Cooperative Oncology Group Common Terminology Criteria for Adverse Events. […]
Where a SMILES comes first, the peptide text is derived from it. [ ]: non-standard residue; d: D form. Hyp = O=C(O)[C@@H]1C[C@@H](O)CN1
assay.metric: MCH (pg)
Express it in pg; write the number only.

State its MCH: CC(C)[C@@H]1NC(=O)[C@@H]2C[C@@H](O)CN2C(=O)[C@H]([C@@H](C)O)NC(=O)[C@H](CCCCN)NC(=O)[C@H](CCC(=O)O)NC(=O)[C@H](CC(N)=O)NC(=O)CNC(=O)[C@@H]2C[C@@H](O)CN2C(=O)[C@H](CC(N)=O)NC1=O [AFPep] (cyclo(EKT[Hyp]VN[Hyp]GN)) 23

* * *

Experiment: 8-day repeat-dose study, tolerability (blood chemistry, hematology, adverse events) in tumor-bearing dogs
Assay type: in vivo, dog
Conditions: Dog 5; Post: 30 min after last injection on day 8; 10 mg s.c. once daily for 8 days
Where a SMILES comes first, the peptide text is derived from it. [ ]: non-standard residue; d: D form. Hyp = O=C(O)[C@@H]1C[C@@H](O)CN1
assay.metric: BUN (mg/dL)
Express it in mg/dL; write the number only.

State its BUN: CC(C)[C@@H]1NC(=O)[C@@H]2C[C@@H](O)CN2C(=O)[C@H]([C@@H](C)O)NC(=O)[C@H](CCCCN)NC(=O)[C@H](CCC(=O)O)NC(=O)[C@H](CC(N)=O)NC(=O)CNC(=O)[C@@H]2C[C@@H](O)CN2C(=O)[C@H](CC(N)=O)NC1=O [AFPep] (cyclo(EKT[Hyp]VN[Hyp]GN)) 15

* * *

Test: 8-day repeat-dose study, tolerability (blood chemistry, hematology, adverse events) in tumor-bearing dogs
Assay type: in vivo, dog
Settings: Dog 3; Post: 30 min after last injection on day 8; 10 mg s.c. once daily for 8 days
Where a SMILES comes first, the peptide text is derived from it. [ ]: non-standard residue; d: D form. Hyp = O=C(O)[C@@H]1C[C@@H](O)CN1
assay.metric: Total Bilirubin (mg/dL)
Express it in mg/dL; write the number only.

State its Total Bilirubin: CC(C)[C@@H]1NC(=O)[C@@H]2C[C@@H](O)CN2C(=O)[C@H]([C@@H](C)O)NC(=O)[C@H](CCCCN)NC(=O)[C@H](CCC(=O)O)NC(=O)[C@H](CC(N)=O)NC(=O)CNC(=O)[C@@H]2C[C@@H](O)CN2C(=O)[C@H](CC(N)=O)NC1=O [AFPep] (cyclo(EKT[Hyp]VN[Hyp]GN)) 0.1

* * *

Test: 8-day repeat-dose study, tolerability (blood chemistry, hematology, adverse events) in tumor-bearing dogs
Type: in vivo, dog
Conditions: Dog 5; Post: 30 min after last injection on day 8; 10 mg s.c. once daily for 8 days
Where a SMILES comes first, the peptide text is derived from it. [ ]: non-standard residue; d: D form. Hyp = O=C(O)[C@@H]1C[C@@H](O)CN1
assay.metric: MCV (fL)
Express it in fL; write the number only.

State its MCV: CC(C)[C@@H]1NC(=O)[C@@H]2C[C@@H](O)CN2C(=O)[C@H]([C@@H](C)O)NC(=O)[C@H](CCCCN)NC(=O)[C@H](CCC(=O)O)NC(=O)[C@H](CC(N)=O)NC(=O)CNC(=O)[C@@H]2C[C@@H](O)CN2C(=O)[C@H](CC(N)=O)NC1=O [AFPep] (cyclo(EKT[Hyp]VN[Hyp]GN)) 67

* * *

Experiment: 8-day repeat-dose study, tolerability (blood chemistry, hematology, adverse events) in tumor-bearing dogs
Type: in vivo, dog
Details: Dog 4; Post: 30 min after last injection on day 8; 10 mg s.c. once daily for 8 days
Where a SMILES comes first, the peptide text is derived from it. [ ]: non-standard residue; d: D form. Hyp = O=C(O)[C@@H]1C[C@@H](O)CN1
assay.metric: Chloride (mmol/L)
Express it in mmol/L; write the number only.

State its Chloride: CC(C)[C@@H]1NC(=O)[C@@H]2C[C@@H](O)CN2C(=O)[C@H]([C@@H](C)O)NC(=O)[C@H](CCCCN)NC(=O)[C@H](CCC(=O)O)NC(=O)[C@H](CC(N)=O)NC(=O)CNC(=O)[C@@H]2C[C@@H](O)CN2C(=O)[C@H](CC(N)=O)NC1=O [AFPep] (cyclo(EKT[Hyp]VN[Hyp]GN)) 114

* * *

Assay: 8-day repeat-dose study, tolerability (blood chemistry, hematology, adverse events) in tumor-bearing dogs
Assay type: in vivo, dog
Settings: Dog 4; Post: 30 min after last injection on day 8; 10 mg s.c. once daily for 8 days
Where a SMILES comes first, the peptide text is derived from it. [ ]: non-standard residue; d: D form. Hyp = O=C(O)[C@@H]1C[C@@H](O)CN1
assay.metric: ALP (U/L)
Express it in U/L; write the number only.

State its ALP: CC(C)[C@@H]1NC(=O)[C@@H]2C[C@@H](O)CN2C(=O)[C@H]([C@@H](C)O)NC(=O)[C@H](CCCCN)NC(=O)[C@H](CCC(=O)O)NC(=O)[C@H](CC(N)=O)NC(=O)CNC(=O)[C@@H]2C[C@@H](O)CN2C(=O)[C@H](CC(N)=O)NC1=O [AFPep] (cyclo(EKT[Hyp]VN[Hyp]GN)) 148

* * *

Assay: 8-day repeat-dose study, tolerability (blood chemistry, hematology, adverse events) in tumor-bearing dogs
Assay type: in vivo, dog
Settings: Dog 1; Post: 30 min after last injection on day 8; 10 mg s.c. once daily for 8 days
Where a SMILES comes first, the peptide text is derived from it. [ ]: non-standard residue; d: D form. Hyp = O=C(O)[C@@H]1C[C@@H](O)CN1
assay.metric: Globulin
Kindly format the answer as number then unit.

State its Globulin: CC(C)[C@@H]1NC(=O)[C@@H]2C[C@@H](O)CN2C(=O)[C@H]([C@@H](C)O)NC(=O)[C@H](CCCCN)NC(=O)[C@H](CCC(=O)O)NC(=O)[C@H](CC(N)=O)NC(=O)CNC(=O)[C@@H]2C[C@@H](O)CN2C(=O)[C@H](CC(N)=O)NC1=O [AFPep] (cyclo(EKT[Hyp]VN[Hyp]GN)) 3 g/dL

* * *

Assay: in vivo
Design: species or system Macaca mulatta
Conditions: monkey, iv, 4 mg/kg
Where a SMILES comes first, the peptide text is derived from it. [ ]: non-standard residue; d: D form. Hyp = O=C(O)[C@@H]1C[C@@H](O)CN1
assay.metric: Cmax (ng/mL)
Express it in ng/mL; write the number only.

State its Cmax: CC(C)[C@@H]1NC(=O)[C@@H]2C[C@@H](O)CN2C(=O)[C@H]([C@@H](C)O)NC(=O)[C@H](CCCCN)NC(=O)[C@H](CCC(=O)O)NC(=O)[C@H](CC(N)=O)NC(=O)CNC(=O)[C@@H]2C[C@@H](O)CN2C(=O)[C@H](CC(N)=O)NC1=O [AFPep] (cyclo(EKT[Hyp]VN[Hyp]GN)) 13000

* * *

Experiment: 8-day repeat-dose study, tolerability (blood chemistry, hematology, adverse events) in tumor-bearing dogs
Type: in vivo, dog
Settings: Dog 6; Post: 30 min after last injection on day 8; 10 mg s.c. once daily for 8 days
Where a SMILES comes first, the peptide text is derived from it. [ ]: non-standard residue; d: D form. Hyp = O=C(O)[C@@H]1C[C@@H](O)CN1
assay.metric: Sodium (mmol/L)
Express it in mmol/L; write the number only.

State its Sodium: CC(C)[C@@H]1NC(=O)[C@@H]2C[C@@H](O)CN2C(=O)[C@H]([C@@H](C)O)NC(=O)[C@H](CCCCN)NC(=O)[C@H](CCC(=O)O)NC(=O)[C@H](CC(N)=O)NC(=O)CNC(=O)[C@@H]2C[C@@H](O)CN2C(=O)[C@H](CC(N)=O)NC1=O [AFPep] (cyclo(EKT[Hyp]VN[Hyp]GN)) 143

* * *

Experiment: 8-day repeat-dose study, AFPep blood levels in tumor-bearing dogs
Format: in vivo, dog
Conditions: female, Poodle mix, dog, blood, sc, 10 mg, Poodle mix, 5.80 kg; 30 min after 10 mg s.c.; single animal; read-out: AFPep blood level, Day 1 Post-Treatment
Where a SMILES comes first, the peptide text is derived from it. [ ]: non-standard residue; d: D form. Hyp = O=C(O)[C@@H]1C[C@@H](O)CN1
assay.metric: level at 0.5 h (µg/mL)
Express it in µg/mL; write the number only.

State its level at 0.5 h: CC(C)[C@@H]1NC(=O)[C@@H]2C[C@@H](O)CN2C(=O)[C@H]([C@@H](C)O)NC(=O)[C@H](CCCCN)NC(=O)[C@H](CCC(=O)O)NC(=O)[C@H](CC(N)=O)NC(=O)CNC(=O)[C@@H]2C[C@@H](O)CN2C(=O)[C@H](CC(N)=O)NC1=O [AFPep] (cyclo(EKT[Hyp]VN[Hyp]GN)) 4.4
